- System: L. donovani HU3 strain in mouse peritoneal macrophages
- assay.remarks: Assay for proliferation of Leishmania parasites in mouse peritoneal macrophages
- Assay type: cell-based, Leishmania donovani
- test.conditions: Leishmania donovani, Peritoneal macrophage, read-out: L. donavani Macrophage EC50
quantity.measured: EC50

L. donovani HU3 strain in mouse peritoneal macrophages / EC50 / Cc1cnc2nc(-c3cc(NC(=O)CO)ccc3Cl)[nH]c2c1 [Compound 183] : value? > 50 µM

Next compound: Cc1cnc2nc(-c3cc(NC(=O)Cc4cccc(F)c4F)ccc3Cl)[nH]c2c1 [Example 78] > 50 µM

Next compound: Cc1cnc2nc(-c3cc(NC(=O)c4ccnn4C)ccc3Cl)[nH]c2c1 [Compound 213] > 48 µM

Next compound: Cc1cnc2nc(-c3cc(Nc4cccc5c4CCN(S(C)(=O)=O)C5)ccc3Cl)[nH]c2c1 [Compound 261] > 50 µM

Next compound: Cc1cnc2nc(-c3cc(NC(=O)c4ccc(S(C)(=O)=O)s4)ccc3Cl)[nH]c2c1 [Compound 175] > 28.9 µM

Next compound: O=C(Nc1ccc(F)c(-c2nc3ncc(Br)cc3o2)c1)c1cocn1 [Compound 410] > 50 µM

Next compound: CCOc1cc(C(=O)Nc2ccc(Cl)c(-c3nc4ncc(C)cc4[nH]3)c2)ccn1 [Compound 93] > 35.5 µM

Next compound: Cc1cnc2nc(-c3cc(NC(=O)C4CCCCN4)ccc3Cl)[nH]c2c1 (stereo not shown) [Compound 171] > 50 µM

Next compound: Cc1cnc2nc(-c3cc(NC(=O)N4CC(F)(F)C[C@@H]4c4cccc(F)c4)ccc3Cl)[nH]c2c1 [Compound 229] > 50 µM

Next compound: Cc1cnc2nc(-c3cc(NC(=O)CCCN4CCOCC4)ccc3Cl)[nH]c2c1 [Compound 132] > 50 µM

Next compound: Cc1cnc2nc(-c3cc(NC(=O)c4nc(C)n[nH]4)ccc3Cl)[nH]c2c1 [Compound 203] > 50 µM

Next compound: COc1ccc(-c2cnc3nc(-c4cc(NC(=O)c5ccco5)ccc4Cl)[nH]c3c2)cc1Cl [Compound 48] 8 µM

Next compound: O=C(Nc1ccc(Cl)c(-c2nc3ncc(C(F)(F)F)cc3[nH]2)c1)C1CCCC1 [Compound 282] 3.3 µM

Next compound: Cc1cnc2nc(-c3cc(NC(=O)C4Cc5ccccc5O4)ccc3Cl)[nH]c2c1 (stereo not shown) [Compound 123] > 50 µM

Next compound: CON(C)C(=O)Nc1ccc(Cl)c(-c2nc3ncc(C)cc3[nH]2)c1 [Compound 240] 6.1 µM

Next compound: O=C(Nc1ccc(Cl)c(-c2nc3ncc(-c4ccc(OCCN5CCOCC5)cc4)cc3[nH]2)c1)N1CCCC1 [Compound 299] 0.208 µM

Next compound: Cc1cnc2nc(-c3cc(NC(=O)Cc4ccc(OC(F)(F)F)cc4)ccc3Cl)[nH]c2c1 [Compound 121] > 21.2 µM

Next compound: Cc1cnc2nc(-c3cc(NC(=O)c4cccc(S(C)(=O)=O)c4)ccc3Cl)[nH]c2c1 [Compound 140] > 50 µM

Next compound: CC(C)(C)OC(=O)N1CC=C(c2cnc3nc(-c4cc(NC(=O)c5ccco5)ccc4Cl)[nH]c3c2)CC1 [Compound 63] 1.6 µM

Next compound: Cc1cc(-c2cnc3nc(-c4cc(NC(=O)c5ccco5)ccc4Cl)[nH]c3c2)cc(C)n1 [Compound 39] 9.6 µM

Next compound: Cc1cnc2nc(-c3cc(NC(=O)Cc4ccccc4)ccc3Cl)[nH]c2c1 [Compound 202] > 50 µM

Next compound: CNc1ccc(-c2cnc3nc(-c4cc(NC(=O)OCCOC)ccc4Cl)[nH]c3c2)cc1 [Example 350] 1.26 µM

###

- Test system: L. donovani HU3 strain in mouse peritoneal macrophages
- assay.remarks: Assay for proliferation of Leishmania parasites in mouse peritoneal macrophages
- Format: cell-based, Leishmania donovani
- test.conditions: Leishmania donovani, Peritoneal macrophage, read-out: L. donavani Macrophage EC50
pEC50: −log10 of the molar value.
Hi there, I'd appreciate the recorded pEC50 for every entry that follows.

Recorded pEC50 of Cc1cnc2nc(-c3cc(NC(=O)c4ccc(-c5cnccn5)cn4)ccc3Cl)[nH]c2c1 [Compound 166] , please. < 4.56

Next compound: Cc1cnc2nc(-c3cc(NC(=O)N4CCCCC4)ccc3Cl)[nH]c2c1 [Compound 239] < 4.45

Next compound: O=C(Nc1ccc(F)c(-c2nc3ncc(-c4cnn(C5CCNCC5)c4)cc3[nH]2)c1)N1CCCC1 [Compound 298] < 4.30

Next compound: Cc1cnc2nc(-c3cc(NC(=O)C(O)c4ccc(C(F)(F)F)cc4)ccc3Cl)[nH]c2c1 (centres unmarked) [Compound 182] < 4.30

Next compound: Cc1cnc2nc(-c3cc(NC(=O)c4cnc(Cl)cn4)ccc3Cl)[nH]c2c1 [Compound 135] < 4.59

Next compound: CC(C)c1nnc(C(=O)Nc2ccc(F)c(-c3nc4ncc(Br)cc4o3)c2)o1 [Compound 406] < 4.30

Next compound: O=C(Nc1ccc(F)c(-c2nc3ncc(Br)cc3o2)c1)c1cnco1 [Compound 408] < 4.30

Next compound: CC(C)Cc1cnc2nc(-c3cc(NC(=O)c4ccco4)ccc3Cl)[nH]c2c1 [Compound 76] < 4.30

###

Hi there, I'd appreciate the recorded EC50 for every entry that follows.
- System: Leishmania donovani axenic amastigote parasites
- assay.remarks: Leishmania donovani axenic amastigote proliferation assay
- Type: cell-based
- test.conditions: axenic amastigotes in vitro, read-out: L. donovani amastigotes EC50
- Protocol: Leishmania Donovani Axenic Amastigote Proliferation Assay Leishmania donovani axenic amastigote parasites are grown at 37° C., 5% CO2 in media made of RPMI 1640, 4 mM L-glutamine, 20% heat inactivated FBS, 100 units/ml of penicillin and 100 μg/ml of streptomycin, 23 μM Folic Acid, 100 μM Adenosine, 22 mM D-glucose, 25 mM MES. The pH of media is adjusted to 5.5 at 37° C. using HCl. […] The luminescence signal of each well is measured using the Envision reader (Perkin Elmer). […]
Kindly answer with a numeric value in µM, unit omitted.

Leishmania donovani axenic amastigote parasites / EC50 / CNc1ccc(-c2cnc3nc(-c4cc(NC(=O)c5cscn5)ccc4Cl)[nH]c3c2)cc1 : value? 1.35

Next compound: COCCOc1ccc(-c2cnc3nc(-c4cc(NC(=O)c5ccco5)ccc4Cl)[nH]c3c2)cc1 0.8

Next compound: O=C1Cc2cc(-c3cnc4nc(-c5cc(NC(=O)C6CCCC6)ccc5Cl)[nH]c4c3)ccc2N1 6.6

Next compound: Nc1ccccc1-c1cnc2nc(-c3cc(NC(=O)c4ccco4)ccc3Cl)[nH]c2c1 0.32

Next compound: O=C(Nc1ccc(Cl)c(-c2nc3ncc(C(F)(F)F)cc3[nH]2)c1)c1ccc(F)o1 0.7

Next compound: Cc1cnc2nc(-c3cc(NC(=O)c4cccn4C)ccc3Cl)[nH]c2c1 17.1

Next compound: Cc1cnc2nc(-c3cc(NC(=O)c4ccc(N5CCOCC5)cn4)ccc3Cl)[nH]c2c1 6.7

Next compound: O=C(Nc1ccc(Cl)c(-c2nc3ncc(Br)cc3[nH]2)c1)c1ccc(F)o1 0.55

Next compound: CC(C)OC(=O)Nc1ccc(Cl)c(-c2nc3ncc(-c4ccc(NC(=O)CCN)cc4)cc3[nH]2)c1 3.7

Next compound: O=C(Nc1ccc(Cl)c(-c2nc3ncc(-c4ccc(OCC5CCOCC5)cc4)cc3[nH]2)c1)c1ccco1 0.68

Next compound: COCn1c(-c2cc(NC(=O)N3CCCC3)ccc2Cl)nc2ncc(Br)cc21 4.3

###

- System: Leishmania donovani axenic amastigote parasites
- assay.remarks: Leishmania donovani axenic amastigote proliferation assay
- Assay type: cell-based
- test.conditions: axenic amastigotes in vitro, read-out: L. donovani amastigotes EC50
quantity.measured: EC50

Recorded EC50 of Cc1cnc2nc(-c3cc(NC(=O)Cn4ccnc4)ccc3Cl)[nH]c2c1 , please. > 25 µM

Next molecule: Cc1cnc2nc(-c3cc(NC(=O)C(F)(F)c4ccccc4)ccc3Cl)[nH]c2c1 > 25 µM

Next molecule: O=C(Nc1ccc(Cl)c(-c2nc3ncc(Br)cc3n2CCN2CCOCC2)c1)N1CCCC1 > 25 µM

Next molecule: Cc1cnc2nc(-c3cc(NC(=O)Cc4ccc(F)cc4)ccc3Cl)[nH]c2c1 > 25 µM

Next molecule: COc1ccc(C(=O)Nc2ccc(Cl)c(-c3nc4ncc(C)cc4[nH]3)c2)c(OC)c1 > 25 µM

Next molecule: Cc1cnc2nc(-c3cc(NS(=O)(=O)c4cccs4)ccc3Cl)[nH]c2c1 > 25 µM

Next molecule: Cc1cnc2nc(-c3cc(Nc4cccc5c4CCN(S(C)(=O)=O)C5)ccc3Cl)[nH]c2c1 > 25 µM

Next molecule: Cc1cnc2nc(-c3cc(NC(=O)c4nccnc4O)ccc3Cl)[nH]c2c1 > 25 µM

Next molecule: Cc1cnc2nc(-c3cc(NC(=O)C(C)(C)NC(=O)OC(C)(C)C)ccc3Cl)[nH]c2c1 > 25 µM

Next molecule: O=C(Nc1ccc(Cl)c(-c2nc3ncc(-c4ccc(OCc5ccccc5)cc4)cc3[nH]2)c1)c1ccco1 0.46 µM

Next molecule: Cc1ccc(CC(=O)Nc2ccc(Cl)c(-c3nc4ncc(C)cc4[nH]3)c2)cc1 > 25 µM

Next molecule: CC(=O)Nc1ccc(-c2cnc3nc(-c4cc(NC(=O)c5ccco5)ccc4Cl)[nH]c3c2)cc1 0.3 µM

Next molecule: O=C(Nc1ccc(Cl)c(-c2nc3ncc(-c4ccc(OCCN5CCOCC5)nc4)cc3[nH]2)c1)c1ccco1 0.55 µM

Next molecule: O=C(Nc1ccc(Cl)c(-c2nc3ncc(Br)cc3[nH]2)c1)c1cocn1 > 25 µM

Next molecule: COC(=O)Nc1ccc(-c2cnc3nc(-c4cc(NC(=O)N5CCCC5)ccc4Cl)[nH]c3c2)cc1 0.034 µM

Next molecule: Cc1cnc2nc(-c3cc(NC(=O)C(C)(C)N)ccc3Cl)[nH]c2c1 > 25 µM

Next molecule: Cc1cnc2nc(-c3cc(NC(=O)c4sc(C)nc4C)ccc3Cl)[nH]c2c1 > 25 µM

Next molecule: COC(=O)Nc1ccc(-c2cnc3nc(-c4cc(NC(=O)c5ccco5)ccc4Cl)oc3c2)cc1 0.212 µM

Next molecule: O=C(Nc1ccc(Cl)c(-c2nc3ncc(-c4ccncc4)cc3[nH]2)c1)c1ccco1 0.89 µM

Next molecule: CNc1ccc(-c2cnc3nc(-c4cc(NC(=O)N5CCCC5)ccc4Cl)[nH]c3c2)cc1 0.08 µM

Next molecule: Cc1cnc2nc(-c3cc(NC(=O)N4CC5CC5C4)ccc3Cl)[nH]c2c1 (centres unmarked) 5.4 µM

Next molecule: Cc1cnc2nc(-c3cc(NC(=O)c4ccc(C(F)(F)F)nc4C)ccc3Cl)[nH]c2c1 > 25 µM

Next molecule: COC(=O)Nc1ccc(-c2cnc3nc(-c4cc(NC(=O)Nc5ccc(C(F)(F)F)cc5)ccc4F)oc3c2)cc1 > 24 µM

Next molecule: Cc1cnc2nc(-c3cc(NC(=O)Cc4cccc(F)c4F)ccc3Cl)[nH]c2c1 > 25 µM

Next molecule: Cc1cc(-c2cnc3nc(-c4cc(NC(=O)c5ccco5)ccc4Cl)[nH]c3c2)cc(C)n1 0.57 µM

Next molecule: Cc1cnc2nc(-c3cc(NC(=O)CCCN(C)C)ccc3Cl)[nH]c2c1 > 25 µM
